Target: RAD52 (Homo sapiens)
Construct: made in house
Sequence (P43351 whole entry): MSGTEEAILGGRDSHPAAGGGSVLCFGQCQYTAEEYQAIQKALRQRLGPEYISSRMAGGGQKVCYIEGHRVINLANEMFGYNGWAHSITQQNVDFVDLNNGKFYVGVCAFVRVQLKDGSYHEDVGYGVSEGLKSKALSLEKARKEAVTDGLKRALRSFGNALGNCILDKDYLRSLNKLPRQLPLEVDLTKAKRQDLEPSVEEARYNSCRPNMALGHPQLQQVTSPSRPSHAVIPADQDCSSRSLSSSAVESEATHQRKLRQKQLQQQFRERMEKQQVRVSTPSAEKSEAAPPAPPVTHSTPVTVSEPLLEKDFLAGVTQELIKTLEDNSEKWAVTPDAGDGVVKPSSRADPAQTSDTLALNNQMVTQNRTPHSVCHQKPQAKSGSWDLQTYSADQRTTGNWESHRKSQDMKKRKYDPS
Experiment: Fluorescence-quenching assay for RAD52 ssDNA annealing (HTS)
Assay type: biochemical
pIC50: −log10 of the molar value.
Parameter pIC50: see the listing below.

{"molecule": "Cc1cc(N2CCN(C)CC2)nc2ccc(NC(=S)NCCCN3CCN(C)CC3)cc12 [D-I01]", "pIC50": 5.44}
{"molecule": "CCN1CCN(CCCNC(=S)Nc2ccc3nc(N(C)CCN)cc(C)c3c2)CC1 [D-E05]", "pIC50": 5.77}
{"molecule": "Cc1ccc(C(=O)c2oc3ccc(Cl)cc3c2NC(=O)CN2CCN(C)CC2)cc1 [D-C17]", "pIC50": 5.22}
{"molecule": "COc1ccc(OC)c(Nc2nc(NCCO)c3ccccc3n2)c1 [D-I05]", "pIC50": 5.37}
{"molecule": "Cc1c(C(=O)Nc2ccc(S(=O)(=O)N(C)C3CCN(C)CC3)cc2)oc2c(Cl)cccc12 [D-A21]", "pIC50": 5.01}
